- Target Or Test System: canine PD-1 (canine)
- Assay Name: competition ELISA, inhibition of canine PD-1 binding to canine PD-L1; competitor canine PD-L1 (Table 2)
Assay Readout: IC50 (nM)
Number in nM, nothing else.

// below: answered binders
NAN4 (5A1) (VHH) VHH: QVQLQASGGGLVQPGGSLTLSCAASGSIDSILAMGWYRQGPGKQREFVASISWSGDITYYADSAKGRFTISRDNAKNTVYLQMNSLKPEDTAVYYCNAGPDMQISGPTDDYDYWGQGTQVG    8.25
NAN15 (4B2) (VHH) VHH: QVQLQASGGGLVQPGEHLLLSCAASGFAFGIYTMGWYRQAPGKEREKVASISRTSDSWNYADSVKGRFTISRENAKNTLYLQMNSLKPEDTALYFCAKSRSAWNTDDIEYWGQGTQVG    5
NAN10 (4B4) (VHH) VHH: QVQLQASGGGLVQGGESLRLSCAASGRTVAEYTIGWYRQAPGKEREFVAGPSWHARGTSYLDSVKGRFTISRDNTKDTVYLQMNTLKPEDTAVYYCNADVNTDYSEYVEYWGQGTQVG    5.04

Okay, next one:
Lab note: measured IC50 of NAN7/8 (5A5) (VHH) VHH: QVQLQASGGGLVEPGGSLRLSCAASGAIFRIAAMGWYRQAPGKERELVATITRGGSTNYADSVKGRFTISRDNAKNTAYLQMDSLKAEDTGVYYCNAGLWATTSANYWGQGTQVG was 6.83

Where these numbers come from: patent US20210047412A1
